method_summary: growth inhibition of GSK3B-pretreated HCT116 cells – cell-based, CellTiter-Glo, 0.2 to 20 µM (AID 1117336)
condition_summary: HCT116 viability after GSK3B inhibitor, at 20 µM, hits give high values
Residues, ends and D or L forms follow the SMILES beside them.
measured_endpoint: viability decrease (%)
A number alone suffices; assume %.

compound | measured_endpoint | reported_result
C[C@@H]1CCC[C@H](C)N1CCCC(O)(c1ccccc1)c1ccccn1 (stereo not given in full) | viability decrease | -50.8
CC1(C)CO[C@@H](CC(=O)O)CN1 | viability decrease | -0.8

// query viability decrease value for entry CC(=O)N[C@@H](CO)C(=O)N[C@@H](CC(=O)O)C(=O)N[C@@H](CCCCN)C(=O)N1CCC[C@H]1C(=O)O (Ac-SDKP-OH) -7.1

Consider the compound shown here: Cc1ccc(S(=O)(=O)NC(=O)NN2CCCCCC2)cc1 What is its recorded viability decrease? -7
